experimental_target: recombinant human TFPI (tissue factor pathway inhibitor) (human, UniProt P10646 29-304)
test_name: cell-based or functional assay
quantity_measured: % of Normalized, TF/FVIIa/FX complex assay, Ab 12.5 nM (%)
Write down the numeric answer in % and omit the unit.

// below: answered binders
clone 3203 (antibody, V domains shown) VH: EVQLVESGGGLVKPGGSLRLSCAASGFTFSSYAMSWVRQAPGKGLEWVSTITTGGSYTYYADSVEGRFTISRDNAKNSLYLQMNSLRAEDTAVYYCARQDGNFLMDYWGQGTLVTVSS VL: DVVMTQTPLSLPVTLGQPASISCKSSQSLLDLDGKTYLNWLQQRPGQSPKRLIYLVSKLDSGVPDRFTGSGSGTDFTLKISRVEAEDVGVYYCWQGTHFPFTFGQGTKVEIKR; 22.7
clone 1023 (antibody, V domains shown, scFv on yeast at selection; human IgG4/kappa IgG as purified) VH: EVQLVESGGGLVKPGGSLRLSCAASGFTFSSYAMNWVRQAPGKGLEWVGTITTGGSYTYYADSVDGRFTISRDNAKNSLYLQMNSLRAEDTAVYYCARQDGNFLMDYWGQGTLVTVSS VL: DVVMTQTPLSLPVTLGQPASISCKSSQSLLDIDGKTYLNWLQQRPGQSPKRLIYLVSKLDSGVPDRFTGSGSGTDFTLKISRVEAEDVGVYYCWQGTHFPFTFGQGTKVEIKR; 31.6
clone 3241 (antibody, V domains shown, scFv on yeast at selection; human IgG4/kappa IgG as purified; also called No. 3241 antibody) VH: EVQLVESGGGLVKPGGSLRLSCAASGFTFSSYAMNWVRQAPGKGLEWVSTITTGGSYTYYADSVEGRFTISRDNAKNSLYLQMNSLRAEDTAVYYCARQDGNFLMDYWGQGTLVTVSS VL: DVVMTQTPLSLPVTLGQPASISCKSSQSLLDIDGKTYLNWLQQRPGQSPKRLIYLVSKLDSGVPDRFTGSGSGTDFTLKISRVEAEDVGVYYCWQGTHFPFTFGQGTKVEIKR; 33.3

Okay, now this binder:
### Prompt I am curious: what % of Normalized, TF/FVIIa/FX complex assay, Ab 12.5 nM value has been reported for clone A67 (antibody, V domains shown) VH: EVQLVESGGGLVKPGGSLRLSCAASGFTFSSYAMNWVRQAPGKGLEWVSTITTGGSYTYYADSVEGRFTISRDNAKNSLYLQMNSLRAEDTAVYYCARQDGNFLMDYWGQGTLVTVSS VL: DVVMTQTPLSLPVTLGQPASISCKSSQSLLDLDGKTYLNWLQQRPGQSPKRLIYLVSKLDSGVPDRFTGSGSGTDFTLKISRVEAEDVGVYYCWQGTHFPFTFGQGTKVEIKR ?
### Response 36.1
